Assembled from different publications: Ki for Carbonic anhydrase 4 (Bos taurus).
Give bare numbers, in nM.

Record excerpt, results attached:
{"Smiles": "C[C@H](CCC(=O)NNc1ccc(S(N)(=O)=O)cc1)[C@H]1CC[C@H]2[C@@H]3CC[C@@H]4C[C@H](O)CC[C@]4(C)[C@H]3C[C@H](O)[C@]12C", "Ki / nM": 920}
{"Smiles": "NS(=O)(=O)c1ccc(CNC(=O)CN(CCN(CC(=O)O)c2ccccc2O)c2ccccc2O)cc1", "Ki / nM": 135}
{"Smiles": "NS(=O)(=O)c1ccc(NC(=O)CN(CCOCCOCCN(CC(=O)O)CC(=O)Nc2ccc(S(N)(=O)=O)cc2)CC(=O)O)cc1", "Ki / nM": 150}
{"Smiles": "NS(=O)(=O)c1cccc(NS(=O)(=O)c2c(F)c(F)c(F)c(F)c2F)c1", "Ki / nM": 500}
{"Smiles": "NC(=O)Nc1ccc(S(=O)(=O)Nc2ccc(S(N)(=O)=O)cc2)cc1", "Ki / nM": 20}

Return reported Ki values for all items listed beneath this line.
1. NS(=O)(=O)c1ccc(CNC(=O)C(F)(F)C(F)(F)C(F)(F)C(F)(F)C(F)(F)C(F)(F)C(F)(F)C(F)(F)F)cc1
2. C[C@H](CCC(=O)Nc1ccc(S(N)(=O)=O)cc1I)[C@H]1CC[C@H]2[C@@H]3[C@@H](O)C[C@@H]4C[C@H](O)CC[C@]4(C)[C@H]3CC[C@]12C

1: 750; 2: 20

----------
Ki for Carbonic anhydrase 4 (Bos taurus) - collated from the literature.
One number for each entry, in nM.

Some solved entries appear below for comparison.
{"Smiles": "NS(=O)(=O)c1nnc(NC(=O)CN(CCN(CCN(CC(=O)O)CC(=O)Nc2nnc(S(N)(=O)=O)s2)CC(=O)O)CC(=O)O)s1", "Readout": "Ki", "Reported Value": 4}
{"Smiles": "NS(=O)(=O)c1ccc(NS(=O)(=O)c2c(F)c(F)cc(F)c2F)cc1", "Readout": "Ki", "Reported Value": 330}
{"Smiles": "CCCC(CCC)C(=O)Nc1ccc(S(N)(=O)=O)cc1I", "Readout": "Ki", "Reported Value": 85}

Respectfully, I request Ki for each entry included below.
1. CC(C)c1cc(-c2ccccc2)cc(C(C)C)[n+]1CC(=O)Nc1ccc(S(N)(=O)=O)cc1F
2. NS(=O)(=O)c1cc(S(N)(=O)=O)c(NS(=O)(=O)C(F)(F)F)c(Cl)c1Cl

1: 39; 2: 725

Fill in Ki for each of the 7 compounds listed.
1. NS(=O)(=O)c1ccc(CCNC(=O)CN(CCN(CC(=O)O)c2ccccc2O)c2ccccc2O)cc1
2. NS(=O)(=O)c1ccccc1NC(=O)c1c(F)c(F)cc(F)c1F
3. Nc1ccc(S(N)(=O)=O)cc1F
4. NS(=O)(=O)c1cc(S(N)(=O)=O)c(NS(=O)(=O)c2c(F)c(F)c(F)c(F)c2F)cc1Cl
5. Cn1nc(S(N)(=O)=O)s/c1=N/S(=O)(=O)c1ccc(NS(=O)(=O)c2c(F)c(F)c(F)c(F)c2F)cc1
6. NS(=O)(=O)c1ccc(CNS(=O)(=O)c2c(F)c(F)c(F)c(F)c2F)cc1
7. CC(=O)Nc1ccc(S(N)(=O)=O)cc1F

1. 215
2. 690
3. 180
4. 26
5. 9
6. 240
7. 105

----------
Target: Carbonic anhydrase 4 (Bos taurus)
Sequence (Q95323 whole entry): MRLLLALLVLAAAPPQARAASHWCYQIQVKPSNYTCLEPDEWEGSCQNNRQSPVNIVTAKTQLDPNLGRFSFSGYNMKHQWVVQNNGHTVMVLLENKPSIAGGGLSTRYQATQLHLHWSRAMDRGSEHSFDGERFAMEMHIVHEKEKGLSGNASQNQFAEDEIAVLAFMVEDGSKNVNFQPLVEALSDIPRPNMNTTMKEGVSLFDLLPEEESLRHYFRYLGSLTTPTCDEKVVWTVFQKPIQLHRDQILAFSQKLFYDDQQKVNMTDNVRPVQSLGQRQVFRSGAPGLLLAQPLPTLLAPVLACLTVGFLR
We begin with pKi values for Carbonic anhydrase 4 (Bos taurus), as collected from the published literature.
Numbers only, as −log10 of the molar value.

Consider the following illustrative entries.
{"Compound": "CCc1cc(-c2ccccc2)cc(CC)[n+]1CC(=O)Nc1ccc(S(=O)(=O)Nc2ccc(S(N)(=O)=O)cc2)cc1", "pKi": 7.20}
{"Compound": "O=C(CNS(=O)(=O)c1c(F)c(F)c(F)c(F)c1F)NO", "pKi": 8.00}
{"Compound": "CNCC(=O)NNc1ccc(S(N)(=O)=O)cc1", "pKi": 6.55}

Go through the list and state pKi for each entry.
1. NS(=O)(=O)c1nnc(NC(=O)CN(CCOCCOCCN(CC(=O)O)CC(=O)O)CC(=O)O)s1
2. C[C@H](CCC(=O)/N=c1/sc(S(N)(=O)=O)nn1C)[C@H]1CC[C@H]2[C@@H]3[C@H](O)C[C@@H]4C[C@H](O)CC[C@]4(C)[C@H]3C[C@H](O)[C@]12C
3. COc1ccc(S(=O)(=O)NC(CC(C)C)C(=O)NO)cc1 (stereo not drawn)
4. Nc1ccc(S(=O)(=O)NCc2ccc(S(N)(=O)=O)cc2)cc1
5. NS(=O)(=O)c1ccc(CNC(=O)CN(CCN(CCN(CC(=O)O)CC(=O)O)CC(=O)O)CC(=O)O)cc1
6. C[C@H](CCC(=O)Nc1ccc2nc(S(N)(=O)=O)sc2c1)[C@H]1CC[C@H]2[C@@H]3C(=O)C[C@@H]4CC(=O)CC[C@]4(C)[C@H]3CC(=O)[C@]12C
7. NS(=O)(=O)c1ccc(N/C(S)=N\c2ccc(C(=O)O)cc2)cc1
8. CCc1cc(-c2ccccc2)cc(CC)[n+]1CCc1ccc(S(N)(=O)=O)cc1

[7.68, 6.94, 7.41, 7.14, 7.40, 8.15, 7.40, 7.68]

# batch: return pKi for each of the 7 compounds below
1. Cn1nc(S(N)(=O)=O)s/c1=N\C(=O)CCCN
2. Cc1cc(-c2ccccc2)cc(C)[n+]1CC(=O)NCCC(=O)Nc1nnc(S(N)(=O)=O)s1
3. Cc1cc(-c2ccccc2)cc(C)[n+]1CC(=O)/N=c1/sc(S(N)(=O)=O)nn1C
4. NS(=O)(=O)c1ccc(CC(=O)c2cccc(C(=O)O)n2)cc1
5. NS(=O)(=O)c1ccc(NS(=O)(=O)c2ccc(NC(=O)c3c(F)c(F)cc(F)c3F)cc2)cc1
6. NS(=O)(=O)c1cc(S(N)(=O)=O)c(NC(=O)CN(CCN(CCN(CC(=O)O)CC(=O)Nc2c(S(N)(=O)=O)cc(S(N)(=O)=O)c(Cl)c2Cl)CC(=O)O)CC(=O)O)c(Cl)c1Cl
7. NS(=O)(=O)c1ccc(NC(=O)c2cccc(C(=O)O)n2)c(Br)c1

1. 7.38
2. 7.82
3. 7.80
4. 7.10
5. 7.20
6. 7.60
7. 7.16

----------
pKi: −log10 of the molar value.
Collected literature values of pKi measured for UniProtKB Q95323.
Threshold check on pKi: at or above 7 gives Criterion met, strictly below gives Criterion not met.

{"Molecule": "NS(=O)(=O)c1ccc(NNC(=O)CN(CCOCCOCCN(CC(=O)O)CC(=O)O)CC(=O)O)cc1", "Class Assignment": "Criterion not met"}

Could you tell me if the measured pKi of CS(=O)(=O)NO reaches 7 or more? Criterion met

API: above_or_equal(metric=pKi, cutoff=7) for item NS(=O)(=O)c1ccc(CCNC(=O)CN(CC(=O)O)CC(=O)O)cc1 Criterion not met

Tell me whether pKi is at least 7 here: Nc1ccc(S(=O)(=O)Nc2cccc(S(N)(=O)=O)c2)cc1 Criterion met

Is reported pKi greater than or equal to 7 here: NS(=O)(=O)c1ccc(NS(=O)(=O)c2c(F)c(F)cc(F)c2F)c(Cl)c1 Criterion met

Determine whether measured pKi meets or exceeds 7 for CC(C(=O)NO)N(Cc1ccc([N+](=O)[O-])cc1)S(=O)(=O)C(F)(F)C(F)(F)C(F)(F)C(F)(F)F (centres undefined) Criterion not met

----------
Target: Carbonic anhydrase 4 (Bos taurus, UniProt Q95323)
Sequence (Q95323 whole entry): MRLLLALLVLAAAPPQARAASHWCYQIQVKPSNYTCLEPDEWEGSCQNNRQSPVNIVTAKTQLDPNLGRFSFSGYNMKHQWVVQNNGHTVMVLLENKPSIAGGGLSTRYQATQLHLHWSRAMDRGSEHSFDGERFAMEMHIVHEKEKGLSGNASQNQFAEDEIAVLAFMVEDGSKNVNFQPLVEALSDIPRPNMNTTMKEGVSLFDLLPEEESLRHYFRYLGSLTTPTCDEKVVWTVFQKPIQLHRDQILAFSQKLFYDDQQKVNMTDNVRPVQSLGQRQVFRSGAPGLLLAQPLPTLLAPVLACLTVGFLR
Assay read-out Ki on Carbonic anhydrase 4 (Bos taurus, UniProt Q95323); records merged from the literature.
Numbers only, in nM.

Here is how some molecules turned out for Ki.
{"Smiles": "NCC(=O)Nc1ccc(S(=O)(=O)Nc2cccc(S(N)(=O)=O)c2)cc1", "Test System": "Carbonic anhydrase 4 (Bos taurus, UniProt Q95323)", "Uom": "nM", "Ki": 79}
{"Smiles": "COc1cc(C(=O)Nc2nnc(S(N)(=O)=O)s2)cc(OC)c1OC", "Test System": "Carbonic anhydrase 4 (Bos taurus, UniProt Q95323)", "Uom": "nM", "Ki": 51}
{"Smiles": "CCN(CC)CCNC(=O)c1cccc(S(=O)(=O)Nc2nnc(S(N)(=O)=O)s2)c1", "Test System": "Carbonic anhydrase 4 (Bos taurus, UniProt Q95323)", "Uom": "nM", "Ki": 7}
{"Smiles": "Nc1ccccc1S(N)(=O)=O", "Test System": "Carbonic anhydrase 4 (Bos taurus, UniProt Q95323)", "Uom": "nM", "Ki": 1310}

Quick request: Ki for each listed item, please.
1. NS(=O)(=O)c1nnc(NS(=O)(=O)c2ccc(C(=O)O)cc2)s1
2. NS(=O)(=O)c1ccc(COS(=O)(=O)C(F)(F)F)cc1
3. CNCC(=O)Nc1nnc(S(N)(=O)=O)s1
4. CCc1cc(-c2ccccc2)cc(CC)[n+]1CC(=O)Nc1cc(Cl)c(S(N)(=O)=O)cc1S(N)(=O)=O
5. NS(=O)(=O)c1ccc(NC(=O)CN(CC(=O)O)CC(=O)O)cc1
6. Nc1ccc(S(N)(=O)=O)cc1Br
7. NS(=O)(=O)c1ccc(NC(=O)Nc2c(F)c(F)c(F)c(F)c2F)c(Cl)c1

1. 12
2. 24100
3. 39
4. 36
5. 450
6. 66
7. 245

Would you mind listing Ki for each of the following molecules?
1. NS(=O)(=O)c1ccc(CNC(=O)CN(CC(=O)O)CC(=O)O)cc1
2. C[C@H](CCC(=O)OCCOc1ccc2nc(S(N)(=O)=O)sc2c1)[C@H]1CC[C@H]2[C@@H]3CC[C@@H]4C[C@H](O)CC[C@]4(C)[C@H]3CC[C@]12C

256
8

Hey, can you go through the list below and give me Ki for every item?
1. NCCCC(=O)NNc1ccc(S(N)(=O)=O)cc1
2. Cn1nc(S(N)(=O)=O)sc1=NS(=O)(=O)C(F)(F)C(F)(F)C(F)(F)C(F)(F)C(F)(F)C(F)(F)C(F)(F)C(F)(F)F
3. NS(=O)(=O)c1cc(S(N)(=O)=O)c(NS(=O)(=O)C(F)(F)C(F)(F)C(F)(F)C(F)(F)F)c(Cl)c1Cl

305
14
160

Would you be so kind as to report Ki for each listed record?
1. CN(C)CCOC(=O)c1ccc(S(=O)(=O)Nc2nnc(S(N)(=O)=O)s2)cc1
2. CCCCc1cc(-c2ccccc2)cc(-c2ccccc2)[n+]1Cc1ccc(S(N)(=O)=O)cc1
3. NS(=O)(=O)c1ccc(N/C(S)=N\c2cccc(C(=O)O)c2)cc1
4. NS(=O)(=O)c1ccc(NNS(=O)(=O)C(F)(F)C(F)(F)C(F)(F)C(F)(F)F)cc1

1. 10
2. 2100
3. 36
4. 600
